Tested on: 817829-284-R-J1-PDC complex spheroids, viability
Experiment: Anticancer human tumor 817829-284-R-J1-PDC patient-derived colon adenocarcinoma cell line growth inhibition [CLK]
Conditions: second compound 1 µM; first compound 0.0949 µM; active compounds read low
Excerpt: A high-throughput screen of multi-cell type tumor spheroids was designed to identify active combinations of […] and targeted small molecules. Complex spheroids include a stromal component modeled by human endothelial cells (HUVEC) and fibroblasts modeled by human mesenchymal stem cells (MSCs). […] Compounds. […] If the clinical Cmax for an agent had not been determined, the highest concentration tested was 10 microM. […]
I'd appreciate it if you could supply viability, T/C values for the items below.
Report only the number, with the unit % understood.

Task: Recall the recorded viability, T/C for C=CC(=O)Nc1cc(Nc2nccc(-c3cn(C)c4ccccc34)n2)c(OC)cc1N(C)CCN(C)C + CN1CCN(c2cc(C(=O)Nc3cc4cc(-c5cnn(C)c5)ccc4cn3)ccn2)CC1 with 817829-284-R-J1-PDC complex spheroids, viability and state it.
Output: 0.17

Task: Recall the recorded viability, T/C for CC(C)CC(NC(=O)C(Cc1ccccc1)NC(=O)c1cnccn1)B(O)O (centres undefined) + CN1CCN(c2cc(C(=O)Nc3cc4cc(-c5cnn(C)c5)ccc4cn3)ccn2)CC1 with 817829-284-R-J1-PDC complex spheroids, viability and state it.
Output: 0.05

Task: Recall the recorded viability, T/C for NC(=O)C(=Cn1cnc(-c2cc(C(F)(F)F)cc(C(F)(F)F)c2)n1)c1cncnc1 + CN1CCN(c2cc(C(=O)Nc3cc4cc(-c5cnn(C)c5)ccc4cn3)ccn2)CC1 with 817829-284-R-J1-PDC complex spheroids, viability and state it.
Output: 0.13

Task: Recall the recorded viability, T/C for CC(C)CC(NC(=O)C(Cc1ccccc1)NC(=O)c1cnccn1)B(O)O (centres undefined) + CNC(=O)c1ccc(Nc2nc(OC3CCCC3)c3c(-c4ccc5nc(C)oc5c4)c[nH]c3n2)c(OC)c1 with 817829-284-R-J1-PDC complex spheroids, viability and state it.
Output: 0.13

----------
system: 817829-284-R-J1-PDC complex spheroids, viability; test: Anticancer human tumor 817829-284-R-J1-PDC cell line growth inhibition [CLK]; conditions: second compound 1 µM; first compound 0.0316 µM; active compounds read low;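 further: spheroids exposed to the agents for seven days before readout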
Rule: measured viability, T/C below 20% gets yes (1); anything equal to or greater than 20% gets no (0).

Task: Is the reported viability, T/C for Cn1ncnc1[C@H]1c2n[nH]c(=O)c3cc(F)cc(c23)N[C@@H]1c1ccc(F)cc1 + CNC(=O)c1ccc(Nc2nc(OC3CCCC3)c3c(-c4ccc5nc(C)oc5c4)c[nH]c3n2)c(OC)c1 strictly below 20%?
Output: no (0)

Task: Is the reported viability, T/C for CC(Nc1ccc2c(c1)OCCn1cc(N3C(=O)OCC3C(F)F)nc1-2)C(N)=O (stereo not given) + CNC(=O)c1ccc(Nc2nc(OC3CCCC3)c3c(-c4ccc5nc(C)oc5c4)c[nH]c3n2)c(OC)c1 strictly below 20%?
Output: no (0)

Task: Is the reported viability, T/C for COc1cccc2c1C(=O)c1c(O)c3c(c(O)c1C2=O)CC(O)(C(=O)CO)CC3OC1CC(N)C(O)C(C)O1 (stereo not given) + CN1CCN(c2cc(C(=O)Nc3cc4cc(-c5cnn(C)c5)ccc4cn3)ccn2)CC1 strictly below 20%?
Output: yes (1)

Task: Is the reported viability, T/C for CC1(C)CCC(CN2CCN(c3ccc(C(=O)NS(=O)(=O)c4ccc(NCC5CCOCC5)c([N+](=O)[O-])c4)c(Oc4cnc5[nH]ccc5c4)c3)CC2)=C(c2ccc(Cl)cc2)C1 + CN1CCN(c2cc(C(=O)Nc3cc4cc(-c5cnn(C)c5)ccc4cn3)ccn2)CC1 strictly below 20%?
Output: yes (1)

----------
I'd appreciate it if you could supply viability, T/C values for the items below.
test system: 817829-284-R-J1-PDC complex spheroids, viability; test: Anticancer human tumor 817829-284-R-J1-PDC cell line growth inhibition [CLK]; settings: second compound 0.0316 µM; first compound 0.01 µM; active compounds read low;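 further: spheroids exposed to the agents for seven days before readout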
Report only the number, with the unit % understood.

Task: // returns reported viability, T/C for input COc1c(OCCCN2CCOCC2)ccc2c3n(c(=NC(=O)c4cnc(N)nc4)nc12)CCN3 + CNC(=O)c1ccc(Nc2nc(OC3CCCC3)c3c(-c4ccc5nc(C)oc5c4)c[nH]c3n2)c(OC)c1
Output: 41.3

Task: // returns reported viability, T/C for input COc1c(OCCCN2CCOCC2)ccc2c3n(c(=NC(=O)c4cnc(N)nc4)nc12)CCN3 + CN1CCN(c2cc(C(=O)Nc3cc4cc(-c5cnn(C)c5)ccc4cn3)ccn2)CC1
Output: 51.3

Task: // returns reported viability, T/C for input CCc1c2c(nc3ccc(O)cc13)-c1cc3c(c(=O)n1C2)COC(=O)[C@]3(O)CC + CNC(=O)c1ccc(Nc2nc(OC3CCCC3)c3c(-c4ccc5nc(C)oc5c4)c[nH]c3n2)c(OC)c1
Output: 16.6

Task: // returns reported viability, T/C for input Cn1ncnc1[C@H]1c2n[nH]c(=O)c3cc(F)cc(c23)N[C@@H]1c1ccc(F)cc1 + CN1CCN(c2cc(C(=O)Nc3cc4cc(-c5cnn(C)c5)ccc4cn3)ccn2)CC1
Output: 43.5

----------
test system: 817829-284-R-J1-PDC complex spheroids, viability; assay: Anticancer human tumor 817829-284-R-J1-PDC cell line growth inhibition [CLK]; conditions: second compound 3.16 µM; first compound 0.316 µM; active compounds read low;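 further: spheroids exposed to the agents for seven days before readout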
Measurement Type: viability, T/C (%)
Report only the number, with the unit % understood.

Task: // returns reported viability, T/C for input COc1cccc2c1C(=O)c1c(O)c3c(c(O)c1C2=O)CC(O)(C(=O)CO)CC3OC1CC(N)C(O)C(C)O1 (stereo not given) + CN1CCN(c2cc(C(=O)Nc3cc4cc(-c5cnn(C)c5)ccc4cn3)ccn2)CC1
Output: 0.24

Task: // returns reported viability, T/C for input C=C(F)C(=O)N1CCN(c2nc(OCC3CCCN3C)nc3c2CCN(c2cccc4cccc(Cl)c24)C3)CC1CC#N (stereo not given) + CNC(=O)c1ccc(Nc2nc(OC3CCCC3)c3c(-c4ccc5nc(C)oc5c4)c[nH]c3n2)c(OC)c1
Output: 22.5

Task: // returns reported viability, T/C for input COc1c(OCCCN2CCOCC2)ccc2c3n(c(=NC(=O)c4cnc(N)nc4)nc12)CCN3 + CN1CCN(c2cc(C(=O)Nc3cc4cc(-c5cnn(C)c5)ccc4cn3)ccn2)CC1
Output: 0.17

Task: // returns reported viability, T/C for input Nc1ccccc1NC(=O)c1ccc(CNC(=O)OCc2cccnc2)cc1 + CN1CCN(c2cc(C(=O)Nc3cc4cc(-c5cnn(C)c5)ccc4cn3)ccn2)CC1
Output: 0.15

Task: // returns reported viability, T/C for input CC(=O)O[C@H]1C(=O)[C@@]2(C)[C@H]([C@H](OC(=O)c3ccccc3)[C@]3(O)C[C@H](OC(=O)[C@H](O)[C@@H](NC(=O)c4ccccc4)c4ccccc4)C(C)=C1C3(C)C)[C@]1(OC(C)=O)CO[C@@H]1C[C@@H]2O + CN1CCN(c2cc(C(=O)Nc3cc4cc(-c5cnn(C)c5)ccc4cn3)ccn2)CC1
Output: 0.13

Task: // returns reported viability, T/C for input CC1COCCN1c1cc(C2(S(C)(=N)=O)CC2)nc(-c2ccnc3[nH]ccc23)n1 (stereo not given) + CN1CCN(c2cc(C(=O)Nc3cc4cc(-c5cnn(C)c5)ccc4cn3)ccn2)CC1
Output: 0.15

Task: // returns reported viability, T/C for input Nc1ccn(C2OC(CO)C(O)C2(F)F)c(=O)n1 (stereo not given) + CNC(=O)c1ccc(Nc2nc(OC3CCCC3)c3c(-c4ccc5nc(C)oc5c4)c[nH]c3n2)c(OC)c1
Output: 4.97

Task: // returns reported viability, T/C for input CC(CO)NC(=O)c1cc(-c2ccc(Cl)cc2)nn(-c2cnn(C)c2)c1=O (stereo not given) + CN1CCN(c2cc(C(=O)Nc3cc4cc(-c5cnn(C)c5)ccc4cn3)ccn2)CC1
Output: 0.22

Task: // returns reported viability, T/C for input CCCS(=O)(=O)Nc1ccc(F)c(C(=O)c2c[nH]c3ncc(-c4ccc(Cl)cc4)cc23)c1F + CNC(=O)c1ccc(Nc2nc(OC3CCCC3)c3c(-c4ccc5nc(C)oc5c4)c[nH]c3n2)c(OC)c1
Output: 21.2

Task: // returns reported viability, T/C for input C=C(F)C(=O)N1CCN(c2nc(OCC3CCCN3C)nc3c2CCN(c2cccc4cccc(Cl)c24)C3)CC1CC#N (stereo not given) + CN1CCN(c2cc(C(=O)Nc3cc4cc(-c5cnn(C)c5)ccc4cn3)ccn2)CC1
Output: 0.2

Task: // returns reported viability, T/C for input COC1C=CCC(C)C(C)S(=O)(=O)NC(=O)c2ccc3c(c2)N(CC2CCC21)CC1(CCCc2cc(Cl)ccc21)CO3 (stereo not given) + CN1CCN(c2cc(C(=O)Nc3cc4cc(-c5cnn(C)c5)ccc4cn3)ccn2)CC1
Output: 0.23

Task: // returns reported viability, T/C for input Nc1ccn(C2OC(CO)C(O)C2(F)F)c(=O)n1 (stereo not given) + CN1CCN(c2cc(C(=O)Nc3cc4cc(-c5cnn(C)c5)ccc4cn3)ccn2)CC1
Output: 0.17

Task: // returns reported viability, T/C for input C=CC(=O)N1CCN(c2nc(=O)n(-c3c(C)ccnc3C(C)C)c3nc(-c4c(O)cccc4F)c(F)cc23)C(C)C1 (stereo not given) + CNC(=O)c1ccc(Nc2nc(OC3CCCC3)c3c(-c4ccc5nc(C)oc5c4)c[nH]c3n2)c(OC)c1
Output: 15.9

Task: // returns reported viability, T/C for input CC(CO)NC(=O)c1cc(-c2ccc(Cl)cc2)nn(-c2cnn(C)c2)c1=O (stereo not given) + CNC(=O)c1ccc(Nc2nc(OC3CCCC3)c3c(-c4ccc5nc(C)oc5c4)c[nH]c3n2)c(OC)c1
Output: 18.7

Task: // returns reported viability, T/C for input O=c1[nH]cc(F)c(=O)[nH]1 + CNC(=O)c1ccc(Nc2nc(OC3CCCC3)c3c(-c4ccc5nc(C)oc5c4)c[nH]c3n2)c(OC)c1
Output: 13.6

Task: // returns reported viability, T/C for input C=CC(=O)N1CCN(c2nc(=O)n(-c3c(C)ccnc3C(C)C)c3nc(-c4c(O)cccc4F)c(F)cc23)C(C)C1 (stereo not given) + CN1CCN(c2cc(C(=O)Nc3cc4cc(-c5cnn(C)c5)ccc4cn3)ccn2)CC1
Output: 0.2

Task: // returns reported viability, T/C for input O=C(c1cc(Cc2n[nH]c(=O)c3ccccc23)ccc1F)N1CCN(C(=O)C2CC2)CC1 + CNC(=O)c1ccc(Nc2nc(OC3CCCC3)c3c(-c4ccc5nc(C)oc5c4)c[nH]c3n2)c(OC)c1
Output: 19.4

Task: // returns reported viability, T/C for input COc1c(OCCCN2CCOCC2)ccc2c3n(c(=NC(=O)c4cnc(N)nc4)nc12)CCN3 + CNC(=O)c1ccc(Nc2nc(OC3CCCC3)c3c(-c4ccc5nc(C)oc5c4)c[nH]c3n2)c(OC)c1
Output: 2.1

Task: // returns reported viability, T/C for input CC1(C)CCC(CN2CCN(c3ccc(C(=O)NS(=O)(=O)c4ccc(NCC5CCOCC5)c([N+](=O)[O-])c4)c(Oc4cnc5[nH]ccc5c4)c3)CC2)=C(c2ccc(Cl)cc2)C1 + CN1CCN(c2cc(C(=O)Nc3cc4cc(-c5cnn(C)c5)ccc4cn3)ccn2)CC1
Output: 0.12

Task: // returns reported viability, T/C for input CCN1CCN(Cc2ccc(Nc3ncc(F)c(-c4cc(F)c5nc(C)n(C(C)C)c5c4)n3)nc2)CC1 + CN1CCN(c2cc(C(=O)Nc3cc4cc(-c5cnn(C)c5)ccc4cn3)ccn2)CC1
Output: 0.12
